- Test system: Streptococcus pyogenes
- TEST: Antibacterial activity against Streptococcus pyogenes ATCC 51339 expressing ParE A53S mutant incubated for 24 hrs by broth microdilution method
- Format: functional
- SETTINGS: ATCC 51339, 24 h
MIC values for the molecules below.

{"COMPOUND": "CCNC(=O)Nc1cc(Nc2ccccc2)c(C(=O)Nc2ccc(N3CCOCC3)nc2)cn1", "RELATION SYMBOL": "=", "MIC (µg/mL)": 4}
{"COMPOUND": "CCNC(=O)Nc1ccc(C(=O)Nc2cccc(Cl)c2)cn1", "RELATION SYMBOL": ">", "MIC (µg/mL)": 64}
{"COMPOUND": "CCNC(=O)Nc1cc(Nc2ccccc2)c(C(=O)Nc2cccc(C)c2)cn1", "RELATION SYMBOL": ">", "MIC (µg/mL)": 64}
{"COMPOUND": "CCNC(=O)Nc1cc(Nc2ccccc2)c(C(=O)Nc2ccc(NC(C)=O)nc2)cn1", "RELATION SYMBOL": "=", "MIC (µg/mL)": 2}
{"COMPOUND": "CCNC(=O)Nc1ccc(C(=O)Nc2cccc(F)c2)cn1", "RELATION SYMBOL": ">", "MIC (µg/mL)": 64}
{"COMPOUND": "CCNC(=O)Nc1cc(-n2cccn2)c(C(=O)Nc2cccc(Cl)c2)cn1", "RELATION SYMBOL": "=", "MIC (µg/mL)": 16}
{"COMPOUND": "CCNC(=O)Nc1cc(Nc2ccccc2)c(C(=O)Nc2cccnc2)cn1", "RELATION SYMBOL": "=", "MIC (µg/mL)": 2}
{"COMPOUND": "CCNC(=O)Nc1cc(Nc2ccccc2)c(C(=O)Nc2ccccc2)cn1", "RELATION SYMBOL": "=", "MIC (µg/mL)": 16}
{"COMPOUND": "CCNC(=O)Nc1ccc(C(=O)Nc2cccc(C)c2)cn1", "RELATION SYMBOL": ">", "MIC (µg/mL)": 64}
{"COMPOUND": "CCNC(=O)Nc1ccc(C(=O)Nc2ccc(OC)c(OC)c2)cn1", "RELATION SYMBOL": ">", "MIC (µg/mL)": 64}
{"COMPOUND": "CCNC(=O)Nc1cc(Nc2ccccc2)c(C(=O)Nc2cccc(Cl)c2)cn1", "RELATION SYMBOL": "=", "MIC (µg/mL)": 32}

Data provenance: ChEMBL document CHEMBL3351278
